- Assay explanation: metabolic stability in liver microsomes
- Type: in vitro ADME
- Measurement conditions: rat
Reported property: microsomal CLint at 1 μM

{"columns": ["Compound", "Meas value"],
 "data": [
  ["Cc1cc(Nc2ccc(C(F)(F)F)nc2)n2nc(C(C)(F)F)nc2n1 [DSM421]", "< 7 µL/min/mg"]
]}

---

- Assay explanation: P. falciparum SCID mouse efficacy model
- Assay type: in vivo
- Measurement conditions: NOD-scid IL-2Rγnull (NSG), mouse, blood, oral, 5 mg/kg/day
Reported property: AUC(0-t) (µg·h/mL)

{"columns": ["Smiles data", "Unit label", "Meas value"],
 "data": [
  ["Cc1cc(Nc2ccc(C(F)(F)F)nc2)n2nc(C(C)(F)F)nc2n1", "µg·h/mL", 30.8]
]}

---

- Assay explanation: pharmacokinetics after IV and oral dosing
- Type: in vivo, rats
- Measurement conditions: rat, plasma, po
Reported property: Tmax

{"columns": ["Smiles data", "Meas value"],
 "data": [
  ["Cc1cc(Nc2ccc(C(F)(F)F)nc2)n2nc(C(C)(F)F)nc2n1", "1.8 to 7.5 h"]
]}

---

- Assay explanation: metabolic stability in liver microsomes
- Format: in vitro ADME
- Measurement conditions: human
Reported property: microsomal CLint at 1 μM

{"columns": ["Smiles data", "Reported property", "Meas value"],
 "data": [
  ["Cc1cc(Nc2ccc(C(F)(F)F)nc2)n2nc(C(C)(F)F)nc2n1", "microsomal CLint at 1 μM", "< 7 µL/min/mg"]
]}

Cited source for all entries: paper PMC5148661
